System: A. baumannii R674
Assay: Chequerboard combination efficacy of adjuvant with antibiotics
Assay type: cell-based
Conditions: antibiotic Rifampicin
Procedure: All the solvents were of reagent grade, which were distilled and dried before its use. All the reagents were purchased from Sigma-Aldrich, Alfa-Aesar, S.D. Fine, Avra and Spectrochem, and were used without further purification. […] Nuclear magnetic resonance spectra were recorded on Bruker (AV-400) 400 MHz spectrometer in deuterated solvents. […] For optical density measurement during bacteriology experiments, Tecan Infinite Pro series M200 Microplate Reader was used. […]
Record form. Attribute: Potentiation factor. Fill in for each entry.
// no unit string in output, number only

Q: Item `NCCCN(CCCN)C(=O)Cc1cccc2ccccc12.O=C(O)C(F)(F)F.O=C(O)C(F)(F)F` has what recorded Potentiation factor?
Result: 8

Q: Item: `NCCCCCCN(CCCCCCN)C(=O)Cc1cccc2ccccc12`
Result: 64

Q: What do you get for NCCCC[C@H](N)C(=O)NCCCCCCN(CCCCCCNC(=O)[C@@H](N)CCCCN)CC(=O)NC1C2CC3CC(C2)CC1C3 (stereo partly shown) ?
Result: 256

Q: Would you mind doing CC(C)(C)OC(=O)NC(Cc1c[nH]c2ccccc12)C(=O)N(CCCN)CCCN.O=C(O)C(F)(F)F.O=C(O)C(F)(F)F.O=C(O)C(F)(F)F (stereo not shown) as well?
Result: 8

Q: Subsequent entry: `NCCCC[C@H](N)C(=O)NCCCN(CCCNC(=O)[C@@H](N)CCCCN)C(=O)CC(c1ccccc1)c1ccccc1`
Result: 16

Q: Same read-out for `NCCCN(CCCN)C(=O)Cc1ccccc1.O=C(O)C(F)(F)F.O=C(O)C(F)(F)F` ?
Result: 2
